TGT: calpain I from porcine erythrocyte (Sus scrofa, UniProt P35750)
Construct: calpain I from porcine erythrocyte (Calbiochem, Cat No 208712) was used as enzyme; purchased Calbiochem 208712; host or cells: porcine erythrocyte (natural source)
Sequence (P35750 whole entry): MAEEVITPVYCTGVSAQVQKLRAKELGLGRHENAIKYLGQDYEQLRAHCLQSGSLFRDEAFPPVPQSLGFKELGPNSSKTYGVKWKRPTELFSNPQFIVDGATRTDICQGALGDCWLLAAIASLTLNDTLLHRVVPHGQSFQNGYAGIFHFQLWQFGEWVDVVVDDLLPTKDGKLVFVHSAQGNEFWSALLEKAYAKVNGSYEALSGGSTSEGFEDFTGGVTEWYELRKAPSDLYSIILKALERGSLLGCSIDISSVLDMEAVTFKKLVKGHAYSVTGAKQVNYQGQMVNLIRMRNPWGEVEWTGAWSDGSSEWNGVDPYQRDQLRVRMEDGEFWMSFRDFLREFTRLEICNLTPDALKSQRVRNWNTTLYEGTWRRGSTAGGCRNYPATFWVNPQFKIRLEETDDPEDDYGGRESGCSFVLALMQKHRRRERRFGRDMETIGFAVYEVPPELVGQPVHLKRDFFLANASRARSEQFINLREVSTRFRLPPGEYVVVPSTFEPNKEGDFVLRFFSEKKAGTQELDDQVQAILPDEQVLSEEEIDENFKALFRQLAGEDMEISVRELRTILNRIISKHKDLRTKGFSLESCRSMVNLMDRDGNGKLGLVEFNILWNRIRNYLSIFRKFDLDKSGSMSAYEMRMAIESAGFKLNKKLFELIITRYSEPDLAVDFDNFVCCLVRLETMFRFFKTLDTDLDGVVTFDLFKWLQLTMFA
Sequence (P04574 whole entry partner): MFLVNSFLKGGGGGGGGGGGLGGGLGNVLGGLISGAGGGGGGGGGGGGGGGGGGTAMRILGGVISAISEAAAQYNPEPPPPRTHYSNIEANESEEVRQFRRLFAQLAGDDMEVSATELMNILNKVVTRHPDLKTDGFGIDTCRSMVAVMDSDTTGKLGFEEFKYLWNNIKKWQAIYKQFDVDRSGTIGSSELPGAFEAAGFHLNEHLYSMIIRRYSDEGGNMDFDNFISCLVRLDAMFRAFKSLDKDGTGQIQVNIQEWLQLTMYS
TEST METHOD NOTES: Enzyme activity test: inhibition of calpain (fluorimetric, BODIPY-FL casein substrate)
Type: biochemical
SETTINGS: 7 inhibitor concentrations between 10 nM and 200 μM
PROPERTY NAME: IC50
// unit must come after the numeric part

Here are 4 molecules together with their reported answers.
1) CC[C@H](C)[C@@H]1NC(=O)c2ccccc2/C1=C/C(=O)OCc1ccc(COC(=O)/C=C2/c3ccccc3C(=O)N[C@H]2[C@@H](C)CC)cc1 5 µM
2) CC[C@H](C)[C@@H]1NC(=O)c2ccccc2/C1=C/C(=O)Nc1ccccc1-c1ccccc1NC(=O)[C@@H](N)Cc1ccccc1 7 µM
3) CC[C@H](C)[C@H](NC(=O)/C=C1/c2ccccc2C(=O)N[C@H]1[C@@H](C)CC)C(=O)N[C@H](C(=O)OC)[C@@H](C)CC 0.447 µM
4) CC[C@H](C)[C@@H]1NC(=O)c2ccccc2/C1=C/C(=O)Nc1ccccc1-c1ccccc1NC(=O)/C=C1/c2ccccc2C(=O)N[C@H]1[C@@H](C)CC 0.742 µM

With those in mind, consider the next molecule.
Look up IC50 for this molecule: CC[C@H](C)[C@H](NC(=O)OCC1c2ccccc2-c2ccccc21)C(=O)Nc1ccccc1-c1ccccc1NC(=O)/C=C1/c2ccccc2C(=O)N[C@H]1[C@@H](C)CC
5 µM
